Taken from the Kinase Knowledgebase extract (Sharma et al. 2016).

molecular target: MAPK14 (UniProt Q16539)
Sequence (Q16539 whole entry, looked up): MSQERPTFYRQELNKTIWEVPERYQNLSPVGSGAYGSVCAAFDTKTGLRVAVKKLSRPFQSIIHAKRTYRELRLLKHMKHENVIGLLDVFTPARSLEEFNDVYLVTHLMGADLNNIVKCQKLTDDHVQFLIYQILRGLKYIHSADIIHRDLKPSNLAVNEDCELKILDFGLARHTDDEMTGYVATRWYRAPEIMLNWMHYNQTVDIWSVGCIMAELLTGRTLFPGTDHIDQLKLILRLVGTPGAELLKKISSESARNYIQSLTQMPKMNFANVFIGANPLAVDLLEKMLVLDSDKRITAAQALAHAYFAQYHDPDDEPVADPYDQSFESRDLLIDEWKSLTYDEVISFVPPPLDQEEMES
One threshold, 40 nM, splits the recorded IC50 values: lower ones are condition met, equal or higher ones are condition not met.

                                   compound        class_label
0  COc1nc2[nH]cc(C(=O)C(=O)N3CC[C@@H](O)C3)c2cc1C(=O)N1CCC(Cc2ccc(F)cc2)CC1      condition met
1  COc1nc2c(cc1C(=O)N1CCC(Cc3ccc(F)cc3)CC1)c(C(=O)C(=O)N1CCCC1)cn2C      condition met
2  COc1nc2[nH]cc(C(=O)C(=O)N(C)C)c2cc1C(=O)N1CCC(Cc2ccc(F)cc2)CC1  condition not met

Bench note: check whether COc1nc2[nH]ccc2cc1C(=O)N1C[C@H](C)N(Cc2ccc(F)cc2)C[C@H]1C shows IC50 below 40 nM
condition met

Bench note: check whether CCNC(=O)C(=O)c1cn(C)c2nc(OC)c(C(=O)N3C[C@H](C)N(Cc4ccc(F)cc4)C[C@H]3C)cc12 shows IC50 below 40 nM
condition met

Bench note: check whether CCN(C)C(=O)C(=O)c1c[nH]c2nc(OC)c(C(=O)N3CCC(Cc4ccc(F)cc4)CC3)cc12 shows IC50 below 40 nM
condition not met
